Attribution: ChEMBL document CHEMBL1201862

- Test system: Malme-3M
- test.method.notes: NCI tumour cell line growth inhibition, 48 h
Activity calls are given as the source filed them. No stated cut-off is given here; in the data, active = GI50 up to about 1.1 µM and inactive = higher.
Select the matching outcome among true = active, false = inactive

Recorded results for 5 compounds are shown here.
CC(C)(CN1CCCCC1)C(=O)CC(SCCS(=O)(=O)O)c1ccc(Cl)c(Cl)c1 (stereo unspecified) : false
CC1(C)C(=O)N(O)C(C)(C)N1N=O : false
COc1ccc2cc(CNCCCN3CCN(CCCNCc4ccc5cc(OC)ccc5c4)CC3)ccc2c1 : false
O=C(OCCN=C1c2ccccc2CCc2ccccc21)c1cc([N+](=O)[O-])cc([N+](=O)[O-])c1 : false
O=C(O)c1cc2c(s1)C(=O)c1sccc1C2=O : true

Write down the call the test reported for this compound. Item: NC(=O)N/N=C1\CCCCc2ccccc21
false

Write down the call the test reported for this compound. Item: C[N+](C)(C)CCOC(=O)/C=C/c1c[nH]cn1
false

Write down the call the test reported for this compound. Item: c1ccc2c(c1)c1c(n2CCOCCN2CCOCC2)CCCC1
false

Write down the call the test reported for this compound. Item: C[C@@H](NC1CCCC[C@H]1O)c1ccccc1 (stereo partly specified)
false

Write down the call the test reported for this compound. Item: CC/C(=N/O)c1ccc2[nH]c3c(C)cc([N+](=O)[O-])c(C)c3c2c1
false

Write down the call the test reported for this compound. Item: COC(=O)C1=C(C(=O)OC)C23C=CC=CC24C(C(=O)OC)=C(C(=O)OC)C4C1C3 (stereo unspecified)
false

Write down the call the test reported for this compound. Item: O=C1c2ccccc2-c2nc(-c3cccs3)cc3c2c1nc1ccccc13
false

Write down the call the test reported for this compound. Item: CC(C)(C)OCC1NC(=O)[C@@H]2Cc3c([nH]c4ccccc34)C(C3CCCCC3)N2C1=O (stereo partly specified)
false

---

Each entry below carries its reported GI50.
- Tested on: UO-31
- test.method.notes: NCI tumour cell line growth inhibition, 48 h
Active and inactive are the calls of the source. Rule as the data show it: active = GI50 up to about 1.1 µM and inactive = higher.

COC(=O)CC1(O)C(C=C(C)C)C(C(=O)OC)C(=O)C(C(=O)OC)C1C(=O)OC (centres undefined) : > 100 µM (inactive)
NC(CC(O)(c1ccccc1)c1ccccc1)c1ccccc1S (centres undefined) : 11.4 µM (inactive)
OC(C1=C/C(=C\c2ccncc2)c2ccccc21)c1ccncc1 (centres undefined) : 8.99 µM (inactive)

What measured GI50 is associated with C/C=C(/C)C(=O)O[C@H]1[C@H]2[C@@H]([C@@H](OC(C)=O)[C@H](C)C(=O)[C@@]34C[C@@H](C)C(=O)[C@]3(/C=C(\C)[C@H]1OC(C)=O)O4)C2(C)C on UO-31?
3.85 µM (inactive)

What measured GI50 is associated with Cc1cc2c(cc1C)NC1=C(O)C(c3c[nH]c4ccc(COc5ccccc5)cc34)OC1=N2 (centres undefined) on UO-31?
79.8 µM (inactive)

What measured GI50 is associated with COC1CC(n2cnc3c(N)ncnc32)OC1CO (centres undefined) on UO-31?
> 100 µM (inactive)

What measured GI50 is associated with CN(C)CC/[N+]([O-])=C(/c1ccccc1)C12CC3CC(CC(C3)C1)C2 on UO-31?
11.9 µM (inactive)

What measured GI50 is associated with CC[C@@H]1CC[C@@H]2[C@H](CC[C@]3(C)[C@@H](O)CC[C@@H]23)[C@H]1CO on UO-31?
> 100 µM (inactive)

What measured GI50 is associated with COC(=O)c1cccc(COc2ccc([N+](=O)[O-])cc2Cl)c1 on UO-31?
98.9 µM (inactive)
